targetOfAssay: T1, 4H2745-bH
T1 chain: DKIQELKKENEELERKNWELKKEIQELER
assayProtocol: two-hybrid library CCNG1;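 further: natural log of median RNA to DNA barcode read ratio; higher means stronger binding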
recordedEndpoint: interaction score

[
  {
    "binder": "DENQELEKEIEELERKIWELKKKNQELKR [4H1072-bH]",
    "interaction score": -0.184
  }
]

I. DKIQELKKENEELERKNWELKKEIQELER [4H2745-bH]
II. DKIQELKKEIEELEREIWELEKKNQELKR [4H2568-bH]
III. DKIQELKKEIEELERKNWELKKENQELER [4H2619-bH]
IV. DENQELEKEIEELERENWELEKKIQELKR [4H1046-bH]
List by increasing interaction score. Write the labels out in the order the request specifies.
I, II, III, IV
(I: -0.337, II: -0.189, III: 0.382, IV: 0.917)
